Give measured IC50 at 72 h for each item. Keep answers brief.
assay_notes: MTT assay (cytotoxicity), 22Rv1 cells
Type: cell-based
assay_setup: human, 22Rv1 cells, 72 h treatment, Table 6.1
Experimental: MTT assays: LNCaP, 22Rv1, Du145, H1975, A549, MB231 and MCF-7 cells are maintained in RPMI 1640 supplemented with 10% FBS. Cells were seeded at a density of 6-7×10^3 cells per well in 96-well plates. After overnight incubation, cells in fresh RPMI 1640 supplemented with 10% FBS were exposed to DMSO vehicle control or test compounds at designated concentrations for 72 h. Viable cells were evaluated by MTT assays. Experiments were performed in triplicate and repeated at least twice.
One number for each entry, in µM.

Below, each entry is followed by its recorded IC50 at 72 h result.
| compound | IC50 at 72 h / µM |
| --- | --- |
| O=C(Nc1cccc(C(F)(F)F)c1)Nc1ccc(F)c(NC(=O)c2cccc(F)c2F)c1 [Compound 948] | 17.1 |
| O=C(Nc1cccc(C(F)(F)F)c1)Nc1ccc(F)c(NC(=O)c2cc(C(F)(F)F)ccc2F)c1 [Compound 944] | 4.5 |
| O=C(Nc1cccc(C(F)(F)F)c1)Nc1ccc(F)c(NC(=O)c2cc(F)ccc2F)c1 [Compound 942] | 7.1 |
| O=C(Nc1cccc(C(F)(F)F)c1)Nc1ccc(C(=O)Nc2ccc(F)cc2)c(C(F)(F)F)c1 [Compound 904] | 3.2 |
| O=C(Nc1cccc(C(F)(F)F)c1)Nc1ccc(F)c(NC(=O)c2ccc(F)cc2F)c1 [Compound 943] | 13 |

Give measured IC50 at 72 h for every item shown.
1. O=C(Nc1cccc(C(F)(F)F)c1)Nc1ccc(NC(=O)c2c(F)cccc2F)c(C(F)(F)F)c1 [Compound 900]
2. O=C(Nc1cccc(C(F)(F)F)c1)Nc1ccc(F)c(NC(=O)c2cc(Cl)ccc2F)c1 [Compound 929]

## Result
1. 10.4
2. 5.7

Give measured IC50 at 72 h for every item shown.
1. O=C(Nc1cccc(C(F)(F)F)c1)Nc1ccc(F)c(NC(=O)c2ccc(F)cc2)c1 [Compound 947]
2. O=C(Nc1cccc(NC(=O)c2ccc(F)cc2)c1)Nc1cccc(C(F)(F)F)c1 [Compound 915]
3. O=C(Nc1ccc(C(F)(F)F)cc1)Nc1ccc(NC(=O)c2ccccc2F)c(C(F)(F)F)c1 [Compound 897]
4. O=C(Nc1cccc(C(F)(F)F)c1)Nc1ccc(F)c(NC(=O)c2cccc(F)c2)c1 [Compound 946]
5. O=C(Nc1cc(F)cc(C(F)(F)F)c1)Nc1ccc(NC(=O)c2ccccc2F)c(C(F)(F)F)c1 [Compound 878]

## Result
1: 15.9; 2: 10.6; 3: 7; 4: 9.5; 5: 3.2

====

Test system: DU145 cells
assay_notes: MTT assay (cytotoxicity), DU145 cells
Format: cell-based
assay_setup: 72 h, Table 2.2
Response field class: string, computed from recorded IC50 by ranges bottom: < 3 µM; middle: ≥ 3 µM and < 10 µM; top: ≥ 10 µM

Record excerpt, results attached:
| molecule | assigned_label |
| --- | --- |
| N#Cc1ccc(NC(=O)N/C=C/c2cccc(C(F)(F)F)c2)cc1C(F)(F)F [Compound 410] | top |
| N#Cc1ccc(NC(=O)N/C=C/c2ccccc2C(F)(F)F)cc1 [Compound 405] | middle |
| N#Cc1ccc(NC(=O)N/C=C/c2cc(C(F)(F)F)cc(C(F)(F)F)c2)cc1 [Compound 469] | bottom |
| O=C(N/C=C/c1cccc(C(F)(F)F)c1)Nc1ccc([N+](=O)[O-])cc1 [Compound 449] | middle |
| O=C(N/C=C/c1cccc(C(F)(F)F)c1)Nc1cccc(C(F)(F)F)c1 [Compound 403] | top |
| N#Cc1ccc(NC(=O)N/C=C/c2ccc(C(F)(F)F)cc2)cc1C(F)(F)F [Compound 421] | middle |
| O=C(N/C=C/c1cccc([N+](=O)[O-])c1)Nc1ccc([N+](=O)[O-])c(C(F)(F)F)c1 [Compound 456] | middle |
| O=C(N/C=C/c1cccc(C(F)(F)F)c1)Nc1ccc(-n2ccnc2)cc1 [Compound 446] | top |
| Cc1ccccc1NC(=O)N/C=C/c1cccc(C(F)(F)F)c1 [Compound 445] | middle |
| N#Cc1ccc(NC(=O)N/C=C/c2cccc(C(F)(F)F)c2)cc1 [Compound 416] | bottom |

## Task Kindly identify the class of O=C(N/C=C/c1ccccc1)Nc1cccc(C(F)(F)F)c1 [Compound 415] .
## Result top

## Task Cool, now COc1cccc(NC(=O)N/C=C/c2cccc(C(F)(F)F)c2)c1 [Compound 417]
## Result top

## Task Cool, now COc1cccc(NC(=O)N/C=C/c2ccccc2C(F)(F)F)c1 [Compound 429]
## Result top

## Task Cool, now O=C(N/C=C/c1cc(C(F)(F)F)cc(C(F)(F)F)c1)Nc1ccc([N+](=O)[O-])c(C(F)(F)F)c1 [Compound 438]
## Result bottom

## Task Cool, now O=C(N/C=C/c1cccc(F)c1)Nc1cccc(C(F)(F)F)c1 [Compound 414]
## Result middle

## Task Cool, now Nc1ccc(NC(=O)N/C=C/c2ccc(C(F)(F)F)cc2)cc1 [Compound 462]
## Result middle

## Task Cool, now O=C(N/C=C/c1ccccc1C(F)(F)F)Nc1ccc([N+](=O)[O-])c(C(F)(F)F)c1 [Compound 404]
## Result top

====

Give measured IC50 at 72 h for each item. Keep answers brief.
assay_notes: MTT assay (cytotoxicity), H1975 cells
Assay type: cell-based
assay_setup: human, 72 h treatment, Table 6.1
Answers are plain numbers, in µM.

Below, each entry is followed by its recorded IC50 at 72 h result.
| chemical_smiles | measured_endpoint | result_number |
| --- | --- | --- |
| O=C(Nc1cccc(C(F)(F)F)c1)Nc1ccc(NC(=O)c2ccccc2F)c(C(F)(F)F)c1 | IC50 at 72 h | 2.5 |
| O=C(Nc1cccc(C(F)(F)F)c1)Nc1ccc(C(=O)Nc2ccccc2F)c(C(F)(F)F)c1 | IC50 at 72 h | 6.3 |

## Task Entry N#Cc1ccc(NC(=O)N/C=C/c2cccs2)cc1C(F)(F)F : reported IC50 at 72 h = ?
## Result 7.7

====

assay_notes: MTT assay (cytotoxicity), LNCaP cells
Assay type: cell-based
assay_setup: human, LNCaP cells, 72 h treatment, Table 6.1
Please use Y for IC50 at 72 h under 4 µM and N for everything else, ties included.

## Task Does this compound meet the criterion IC50 at 72 h < 4 µM? O=C(Nc1cccc(C(F)(F)F)c1)Nc1ccc(F)c(NC(=O)c2cc(Cl)ccc2F)c1
## Result N

## Task Cool, now O=C(Nc1cccc(C(F)(F)F)c1)Nc1ccc(NC(=O)c2ccc(F)cc2F)c(C(F)(F)F)c1
## Result N

====

Test system: DU145 cells
assay_notes: MTT assay (cytotoxicity), DU145 cells
Type: cell-based
assay_setup: 72 h, Table 2.2
measured_endpoint: IC50
Phrase the answer as number then unit, nothing more needed.

| compound | measured_endpoint | result |
| --- | --- | --- |
| N#Cc1ccc(NC(=O)N/C=C/c2cccc(F)c2)cc1C(F)(F)F [Compound 433] | IC50 | 3.9 µM |
| N#Cc1ccc(NC(=O)N/C=C/c2cc(C(F)(F)F)cc(C(F)(F)F)c2)cc1C(F)(F)F [Compound 463] | IC50 | 1.2 µM |
| CN(C)c1ccc(NC(=O)N/C=C/c2cccc(C(F)(F)F)c2)cc1 [Compound 435] | IC50 | 20 µM |
| COc1cc([N+](=O)[O-])ccc1NC(=O)N/C=C/c1cccc(C(F)(F)F)c1 [Compound 441] | IC50 | 6.7 µM |
| O=C(N/C=C/c1cc(C(F)(F)F)ccc1C(F)(F)F)Nc1ccc([N+](=O)[O-])c(C(F)(F)F)c1 [Compound 436] | IC50 | 0.7 µM |
| O=C(N/C=C/c1ccc(C(F)(F)F)cc1)Nc1ccc([N+](=O)[O-])c(C(F)(F)F)c1 [Compound 407] | IC50 | 15.3 µM |
| O=C(N/C=C/c1cccc(OC(F)(F)F)c1)Nc1ccc([N+](=O)[O-])c(C(F)(F)F)c1 [Compound 437] | IC50 | 3 µM |
| N#Cc1ccc(NC(=O)N/C=C/c2cc(C(F)(F)F)ccc2C(F)(F)F)cc1C(F)(F)F [Compound 464] | IC50 | 0.4 µM |

API: the following record is the query input.
## Task Entry N#Cc1ccc(NC(=O)N/C=C/c2cc(C(F)(F)F)ccc2C(F)(F)F)cc1 [Compound 468] : reported IC50 = ?
## Result 1.5 µM

====

assay_notes: MTT assay (cytotoxicity), LNCaP cells
Type: cell-based
assay_setup: human, LNCaP cells, 72 h treatment, Table 6.1
measured_endpoint: IC50 at 72 h (µM)
Numbers only, in µM.

Below, each entry is followed by its recorded IC50 at 72 h result.
| chemical_smiles | measurement_unit | result_number |
| --- | --- | --- |
| O=C(Nc1cccc(F)c1)Nc1cc(F)ccc1NC(=O)c1ccc(F)cc1F | µM | 4.3 |
| O=C(Nc1cccc(C(F)(F)F)c1)Nc1cc(NC(=O)Nc2cccc(C(F)(F)F)c2)cc(C(F)(F)F)c1 | µM | 1.4 |
| O=C(Nc1cccc(C(F)(F)F)c1)Nc1cc(C(=O)O)cc(C(F)(F)F)c1 | µM | 2.9 |
| O=C(Nc1cccc(C(F)(F)F)c1)Nc1ccc(F)c(NC(=O)c2cc(C(F)(F)F)ccc2F)c1 | µM | 5.5 |
| O=C(Nc1cccc(C(F)(F)F)c1)Nc1ccc(F)c(NC(=O)c2cccc(F)c2)c1 | µM | 8.4 |
| O=C(Nc1ccc(F)c(NC(=O)c2cc(C(F)(F)F)ccc2F)c1)Nc1ccccc1C(F)(F)F | µM | 13.5 |
| O=C(Nc1cccc(C(F)(F)F)c1)Nc1ccc(NC(=O)c2cc(Cl)ccc2F)c(C(F)(F)F)c1 | µM | 4.2 |
| O=C(Nc1cccc(F)c1)Nc1cc(NC(=O)Nc2cccc(F)c2)cc(C(F)(F)F)c1 | µM | 2.4 |

Give measured IC50 at 72 h for every item shown.
1. O=C(Nc1cccc(C(F)(F)F)c1)Nc1ccc(NC(=O)c2cc(I)ccc2F)c(C(F)(F)F)c1
2. O=C(Nc1cccc(NC(=O)c2cccc(F)c2)c1)Nc1cccc(C(F)(F)F)c1
3. O=C(Nc1cccc(C(F)(F)F)c1)Nc1ccc(F)c(NC(=O)Nc2ccccc2F)c1
4. O=C(Nc1cccc(C(F)(F)F)c1)Nc1ccccc1NC(=O)Nc1cccc(C(F)(F)F)c1
5. O=C(Nc1cccc(C(F)(F)F)c1)Nc1ccc(F)c(NC(=O)c2cccc(F)c2F)c1
6. O=C(Nc1cccc(C(F)F)c1)Nc1ccc(NC(=O)c2cc(C(F)(F)F)ccc2F)c(C(F)(F)F)c1

## Result
[5.2, 7.3, 3.8, 2.7, 8, 5.4]

Give measured IC50 at 72 h for every item shown.
1. O=C(Nc1cccc(C(F)(F)F)c1)Nc1ccc(C(=O)Nc2ccc(F)cc2)c(C(F)(F)F)c1
2. O=C(Nc1cccc(C(F)(F)F)c1)Nc1ccc(NC(=O)c2cc(C(F)(F)F)ccc2F)c(C(F)(F)F)c1
3. O=C(Nc1cccc(C(F)F)c1)Nc1ccc(NC(=O)c2cc(F)ccc2F)c(C(F)(F)F)c1
4. O=C(Nc1ccc(C(F)(F)F)cc1)Nc1cc(NC(=O)Nc2ccc(C(F)(F)F)cc2)cc(C(F)(F)F)c1
5. O=C(Nc1cccc(C(F)(F)F)c1)Nc1ccc(F)c(NC(=O)c2c(F)cccc2F)c1
6. O=C(Nc1cccc(C(F)F)c1)Nc1ccc(NC(=O)c2ccccc2F)c(C(F)(F)F)c1
7. O=C(Nc1cccc(C(F)(F)F)c1)Nc1ccc(F)cc1NC(=O)c1ccc(F)cc1F

## Result
1. 4.1
2. 6.8
3. 8.2
4. 1.5
5. 12.3
6. 11.6
7. 6.2

Give measured IC50 at 72 h for every item shown.
1. O=C(Nc1cccc(C(F)(F)F)c1)Nc1ccc(F)c(NC(=O)c2cc(F)ccc2F)c1
2. O=C(Nc1cccc(C(F)(F)F)c1)Nc1ccc(NC(=O)c2cccnc2F)c(C(F)(F)F)c1
3. O=C(Nc1ccc(NC(=O)c2ccccc2F)c(C(F)(F)F)c1)Nc1ccccc1C(F)(F)F
4. O=C(Nc1cccc(C(F)(F)F)c1)Nc1ccc(F)c(NC(=O)c2ccc(F)cc2)c1

## Result
5.7
13.8
5.2
12.7
